Test: melting temperature; fluorescence melt of hairpins on a sequencing array, two-state fit, raised by 9.35 °C to match UV melts
Conditions: sodium 0.088 M
Class assignment keyed on Tm, ranges group A: < 40 °C; group B: ≥ 40 °C and < 60 °C; group C: ≥ 60 °C

1) GGGGCGGGAAACCGTCCC (((.(((....))).)))
group C
2) GATTATGGAAACATAATC (((((((....)))))))
group B
3) GCTAGATCGAAAGATAGC (((..(((....))))))
group A
4) GCCAGTGGAAACATTGGC ((((.((....)).))))
group B
5) GATCTATAGTAGATC ((((((...))))))
group A

Looking at GCGCGAGGAAACTCGTGC ((.((((....)))).)) , which class would you pick?
group C

Looking at GAACGGGGAAACCCGTTC (((((((....))))))) , which class would you pick?
group C

Looking at GATCAGACGCTGATC ((((((...)))))) , which class would you pick?
group B

Looking at GCGTTTCGAAAGAACGC (((.(((....)))))) , which class would you pick?
group B

Looking at GGTTTCGGAAACGAAGTC (..((((....))))..) , which class would you pick?
group A

Looking at GATCCTAAACAGGATC ((((((....)))))) , which class would you pick?
group B

meta.source: the array DNA melting data of Ke et al. (doi:10.1101/2024.01.08.574731)
